Molecular target: SUMO-1 (Homo sapiens)
Construct: The pet19b His-TEV-SUMO-1 (18-97) construct was over-expressed; His-TEV (N, cleaved yes); made in house; host or cells: E. coli Rosetta 2
Format: binding
Where a SMILES comes first, the peptide text is derived from it. The star is where a group is joined. 5FAM = O=C1OC2(c3ccc(O)cc3Oc3cc(O)ccc32)c2ccc(C(=O)*)cc21; AEEA = NCCOCCOCC(=O)O
recorded_endpoint: Experimental competition (ΔΔG on mutation of the residue to alanine)
The reply should be a number, written without any unit.

[ask] // lookup Experimental competition (ΔΔG on mutation of the residue to alanine) for CC[C@H](C)[C@H](NC(=O)[C@H](CCC(=O)O)NC(=O)[C@H](CC(N)=O)NC(=O)[C@H](CC(=O)O)NC(=O)COCCOCCNC(=O)c1ccc2c(c1)C(=O)OC21c2ccc(O)cc2Oc2cc(O)ccc21)C(=O)N[C@@H](CCC(=O)O)C(=O)N[C@H](C(=O)N[C@H](C(=O)N[C@@H](C)C(=O)N[C@H](C(=O)N[C@@H](Cc1c[nH]c2ccccc12)C(=O)N[C@@H](CCC(=O)O)C(=O)N[C@@H](CCCCN)C(=O)N[C@@H](CCCCN)C(N)=O)C(C)C)[C@@H](C)CC)C(C)C [FAM-I2712A SIM] ({5FAM-AEEA}-DNEIEVIAVWEKK-NH2)
[reply] 5.7

###

Target: SUMO-1 (Homo sapiens, UniProt P63165)
Construct: The pet19b His-TEV-SUMO-1 (18-97) construct was over-expressed; His-TEV (N, cleaved yes); made in house; host or cells: E. coli Rosetta 2
Sequence (P63165 18-97, species assumed): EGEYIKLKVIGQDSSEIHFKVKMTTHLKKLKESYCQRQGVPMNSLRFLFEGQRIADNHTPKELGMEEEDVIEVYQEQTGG
Assay type: binding
Where a SMILES comes first, the peptide text is derived from it. The star is where a group is joined. 5FAM = O=C1OC2(c3ccc(O)cc3Oc3cc(O)ccc32)c2ccc(C(=O)*)cc21; AEEA = NCCOCCOCC(=O)O
recorded_endpoint: Experimental competition (ΔΔG) (kcal/mol)
Quick note: give the figure in kcal/mol, leave out the unit.

Some molecules with known Experimental competition (ΔΔG) results, for comparison:
{"molecule": "CC[C@H](C)[C@H](NC(=O)[C@H](CCC(=O)O)NC(=O)[C@H](CC(N)=O)NC(=O)[C@H](CC(=O)O)NC(=O)COCCOCCNC(=O)c1ccc2c(c1)C(=O)OC21c2ccc(O)cc2Oc2cc(O)ccc21)C(=O)N[C@@H](CCC(=O)O)C(=O)N[C@H](C(=O)N[C@H](C(=O)N[C@@H](C)C(=O)N[C@H](C(=O)N[C@@H](Cc1c[nH]c2ccccc12)C(=O)N[C@@H](CCC(=O)O)C(=O)N[C@@H](CCCCN)C(=O)N[C@@H](CCCCN)C(N)=O)C(C)C)[C@@H](C)CC)C(C)C [FAM-I2712A SIM] ({5FAM-AEEA}-DNEIEVIAVWEKK-NH2)", "units_text": "kcal/mol", "Experimental competition (ΔΔG)": 1.36}
{"molecule": "CC[C@H](C)[C@H](NC(=O)[C@H](CCC(=O)O)NC(=O)[C@H](CC(N)=O)NC(=O)[C@H](CC(=O)O)NC(=O)COCCOCCNC(=O)c1ccc2c(c1)C(=O)OC21c2ccc(O)cc2Oc2cc(O)ccc21)C(=O)N[C@@H](CCC(=O)O)C(=O)N[C@H](C(=O)N[C@H](C(=O)N[C@H](C(=O)N[C@H](C(=O)N[C@@H](C)C(=O)N[C@@H](CCC(=O)O)C(=O)N[C@@H](CCCCN)C(=O)N[C@@H](CCCCN)C(N)=O)C(C)C)[C@@H](C)CC)[C@@H](C)CC)C(C)C [FAM-W2714A SIM] ({5FAM-AEEA}-DNEIEVIIVAEKK-NH2)", "units_text": "kcal/mol", "Experimental competition (ΔΔG)": 1.94}
{"molecule": "CC[C@H](C)[C@H](NC(=O)[C@H](C)NC(=O)[C@H](CCC(=O)O)NC(=O)[C@@H](NC(=O)[C@H](CCC(=O)O)NC(=O)[C@H](CC(N)=O)NC(=O)[C@H](CC(=O)O)NC(=O)COCCOCCNC(=O)c1ccc2c(c1)C(=O)OC21c2ccc(O)cc2Oc2cc(O)ccc21)[C@@H](C)CC)C(=O)N[C@H](C(=O)N[C@H](C(=O)N[C@@H](Cc1c[nH]c2ccccc12)C(=O)N[C@@H](CCC(=O)O)C(=O)N[C@@H](CCCCN)C(=O)N[C@@H](CCCCN)C(N)=O)C(C)C)[C@@H](C)CC [FAM-V2710A SIM] ({5FAM-AEEA}-DNEIEAIIVWEKK-NH2)", "units_text": "kcal/mol", "Experimental competition (ΔΔG)": 1.12}

Please turn your attention to the following entry.
[ask] Give the measured Experimental competition (ΔΔG) of CC[C@H](C)[C@H](NC(=O)[C@H](C)NC(=O)[C@H](CC(N)=O)NC(=O)[C@H](CC(=O)O)NC(=O)COCCOCCNC(=O)c1ccc2c(c1)C(=O)OC21c2ccc(O)cc2Oc2cc(O)ccc21)C(=O)N[C@@H](CCC(=O)O)C(=O)N[C@H](C(=O)N[C@H](C(=O)N[C@H](C(=O)N[C@H](C(=O)N[C@@H](Cc1c[nH]c2ccccc12)C(=O)N[C@@H](CCC(=O)O)C(=O)N[C@@H](CCCCN)C(=O)N[C@@H](CCCCN)C(N)=O)C(C)C)[C@@H](C)CC)[C@@H](C)CC)C(C)C [FAM-E2707A SIM] ({5FAM-AEEA}-DNAIEVIIVWEKK-NH2) .
[reply] 0.406

The measured values listed here are drawn from paper PMC6804253.
